Provenance of the data: the supplement of paper PMC10567573

B1: ZNF449 (parent)
chain: EPHKCPECGKRFLRSSDLYRHQRL

Variants of: B1
Experiment: protein stability index of a GFP-peptide fusion (GPS, HEK-293T) (PSI 1-6); higher = more stable;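 also: lentivirally expressed fusions sorted by FACS into six bins by GFP to DsRed ratio, PSI derived from sequencing read proportions per bin multiplied by bin number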
Conditions: c terminus: a fixed tail appended
Recorded measurements of protein stability index, one per entry
Give a plain numeric answer without units written out.

Take a look at these entries with their results.
1. P2R	3.54
2. K10Y	2.5
3. K4Y	4.47
4. L13S	3.92
5. S15W	3.52
6. H3A	3.25
7. D17H	2.87
8. E7G	3.74

Quick one: protein stability index of "Y19H" ?
3.99

Quick one: protein stability index of "S16C" ?
3.62
